- Tested on: UACC-257 melanoma
- assay.explanation: NCI-60 one-dose screen, 48 h (100 = growth as untreated, 0 = no growth, -100 = all killed)
- details: 10 µM unless noted
About 83,000 compounds went through this panel and 20% of them were active in at least one assay; those are over-represented in the sample as a whole.
A collection of molecules and their measured growth
Quick reminder: number only, in %, skip the unit.

sample.smiles | system | endpoint.name | units.of.measure | observed.result
Fc1ccc(-c2cn3c(-c4c[nH]c5ccc(Br)cc45)csc3n2)cc1 | UACC-257 melanoma | growth | % | 93.5
Cc1ccc(N2CCN(C3=C(Cl)C(=O)c4ncccc4C3=O)CC2)cc1 | UACC-257 melanoma | growth | % | 29.6
COc1ccc(NC2=C(Br)C(=O)C(C)=C(C)C2=O)cc1OC | UACC-257 melanoma | growth | % | 96
CCOC(=O)Nc1ccc2c(ccn2C(=O)c2cccc(F)c2)c1 | UACC-257 melanoma | growth | % | 74.4
Cc1nc(/N=C(N)/N=C(\N)c2cccc(Br)c2)sc1C | UACC-257 melanoma | growth | % | 88.3

Turning now to a further record.
Dear colleague, I am looking for the recorded growth of the following molecule: `CCc1cc2c(cc1Cl)nc1c(=O)[nH]c(=O)nc-1n2CCOCC(C)C`
36.6

---

A collection of compounds and their measured growth
- System: UACC-62 melanoma
- assay.explanation: NCI-60 one-dose screen, 48 h (100 = growth as untreated, 0 = no growth, -100 = all killed)
- details: 10 µM unless noted
This is part of a sample that, as a whole, favours compounds with a hit. Of some 83,000 tested, about 20% had one in any assay. The source made the active and inactive calls. The calls were made as follows: active = growth percent below 10; inactive = the rest.

compound | system | observed.result
COc1ccc2c(c1)c(-c1nnc(N)nc1-c1c[nH]c3ccc(F)cc13)cn2C | UACC-62 melanoma | 35.9% (inactive)

Turning now to a further record.
Dear colleague, I am looking for the recorded growth of the following compound: `CN1CCN(c2ccc(Nc3nc(NCCNS(=O)(=O)c4ccccc4)c4sccc4n3)cc2)CC1`
96.4% (inactive)

---

- Tested on: SR leukemia
- assay.explanation: NCI-60 one-dose screen, 48 h
- details: 10 µM unless noted
About 83,000 compounds went through this panel and 20% of them were active in at least one assay; those are over-represented in the sample as a whole. Calls of active or inactive are those of the source. How the source made its calls: active means growth percent below 10; inactive means the rest.
Write down the outcome that applies. Available outcomes: active, inactive

Would you please look over these solved cases?
compound | assigned.label
CN1CCC[C@]2(C)[C@H]3CC[C@@H]4[C@@H]5[C@H]6OC[C@@]5(CCC6(C)C)CC[C@@]4(C)[C@]3(C)CC[C@H]2C1(C)C | active
CCCCc1nc2c(N)nc3ccccc3c2n1Cc1ccc(OC)cc1 | inactive
CC(Nc1ncnc2ccc(-c3cnc4cnccn34)cc12)c1ccccc1 (stereo not drawn) | inactive
CCc1cc(OC(=O)N2CCC(N3CCCCC3)CC2)ccc1Nc1cc(-c2ccc(-n3cccn3)cc2)[nH]n1 | active
CC(C)(O)c1cncc(-c2ccc3ncc(C#N)c(N4CCc5cc(F)c(Cl)cc54)c3c2)c1 | inactive
CCc1cc2c(cc1Cl)nc1c(=O)[nH]c(=O)nc-1n2CCOCC(C)C | inactive

State the result this test recorded for `CC(=O)OC[C@]12CC[C@@H](C(=O)/C=C/c3cccnc3)[C@@H]1[C@H]1CC[C@@H]3[C@@]4(C)CC[C@H](OC(C)=O)C(C)(C)[C@@H]4CC[C@@]3(C)[C@]1(C)CC2` .
active

State the result this test recorded for CCOP(=O)(OCC)OC[C@]12CCC(C)(C)CC1C1=CC[C@@H]3[C@@]4(C)CCCNC(C)(C)[C@@H]4CC[C@@]3(C)[C@]1(C)CC2 (stereo partly drawn) .
active

---

- Tested on: NCI-H23 lung
- assay.explanation: NCI-60 one-dose screen, 48 h (100 = growth as untreated, 0 = no growth, -100 = all killed)
- details: 10 µM unless noted
- Procedure: Growth inhibition of the NCI-H23 human Non-Small Cell Lung tumor cell line is measured as a screen for anti-cancer activity. Cells are grown in 96 well plates and exposed to the test compound for 48 hours. Compounds are tested at a single concentration, which is 10^-5 M for most compounds. The reported endpoint is percent growth (GI% or GIPRCNT), where numbers from 0 - 100% represent growth inhibition, and numbers from -100% - 0 represent cell death. […]
About 83,000 compounds went through this panel and 20% of them were active in at least one assay; those are over-represented in the sample as a whole. The source made the active and inactive calls. Rule for the calls: active = growth percent below 10; inactive = the rest.
endpoint.name: growth

Dear colleague, I am looking for the recorded growth of the following molecule: `CC/C(=C(/c1ccc(Cl)cc1)c1ccc(OCCN)cc1)c1ccccc1`
96% (inactive)

Dear colleague, I am looking for the recorded growth of the following molecule: `N#CC1=C2NCCCNc3oc(nc3C#N)Cc3ccccc3CC(=N1)O2`
90.7% (inactive)

---

- Test system: RPMI-8226 leukemia
- assay.explanation: NCI-60 one-dose screen, 48 h
- details: 10 µM unless noted
The panel holds about 83,000 compounds, 20% with a hit somewhere; the sample as a whole holds those more often. The source made the active and inactive calls. The calls were made as follows: active = growth percent below 10; inactive = the rest.
Write down the outcome that applies. Available outcomes: true for active, false for inactive

Would you please look over these solved cases?
molecule | assigned.label
CN1CCN(Cc2ccc(NC(=O)c3cncc(C#Cc4cnc(N)nc4)c3)cc2C(F)(F)F)CC1 | false
CCOP(=O)(OCC)OC[C@]12CCC(C)(C)CC1C1=CC[C@@H]3[C@@]4(C)CCCNC(C)(C)[C@@H]4CC[C@@]3(C)[C@]1(C)CC2 (stereo not given in full) | true
COc1ccc(C2CC(c3cccc(OCCCCOc4cccc(C5=NN(C(C)=O)C(c6ccc(OC)cc6)C5)c4)c3)=NN2C(C)=O)cc1 (stereo not given) | false
C[C@H](Nc1ncnc2ccc(-c3cnc(Cl)c(NS(C)(=O)=O)c3)cc12)c1ccccc1 | true
COc1cc(-c2nc(-c3ccccc3)[nH]c2-c2ccnc(NCCCNS(=O)(=O)c3ccc(C)cc3)n2)ccc1F | false
COc1cc2c3c(cc4c5c(ccc4c3c1OC)OCO5)N(CCN(C)C)C2=O | true
CCOC(=O)c1ccc(NC2=C(Cl)C(=O)c3nc(C)ccc3C2=O)cc1 | true
COC(=O)c1cccc(NC2=C(Cl)C(=O)c3nc(C)ccc3C2=O)c1 | true
O=C(N/N=C\c1ccc([N+](=O)[O-])cc1)c1ccc2nc(-c3ccc(Br)cc3)[nH]c2c1 | true
CCOC(=O)c1cccnc1Nc1ccc(NC(=O)Nc2ccc(Cl)c(C(F)(F)F)c2)cc1 | false

State the result this test recorded for `CC(=O)c1cc(C(=O)N2c3ccccc3Sc3ccccc32)n2c1ccc1ccccc12` .
false

State the result this test recorded for `CC(C)NC(=O)c1cc(-c2ccc(NC(=O)Nc3ccc(F)c(C(F)(F)F)c3)cc2)nc2cccnc12` .
false

State the result this test recorded for `CN1CCN(Cc2ccc(NC(=O)c3cncc(C#Cc4cnc5ccc(OCCCS(C)(=O)=O)nn45)c3)cc2C(F)(F)F)CC1` .
true

State the result this test recorded for `O=C(O)c1ccc(-n2c(=O)n(-c3cccc(C(F)(F)F)c3)c(=O)c3cc(-c4ccc(F)cc4F)ccc32)cc1` .
true

State the result this test recorded for `CNc1sc(S(=O)(=O)NC)nc1S(=O)(=O)c1ccc(C)cc1` .
false

State the result this test recorded for `CCOC(=O)c1c(NC(=O)c2cccc(C(F)(F)F)c2)sc2c1CCC(=O)C2` .
true

State the result this test recorded for C/C(CC1(O)C(=O)Nc2ccccc21)=N\O (stereo not given) .
false

---

- System: NCI/ADR-RES ovarian
- assay.explanation: NCI-60 one-dose screen, 48 h
- details: 10 µM unless noted
About 83,000 compounds went through this panel and 20% of them were active in at least one assay; those are over-represented in the sample as a whole. Active and inactive are the calls of the source. How the source made its calls: active means growth percent below 10; inactive means the rest.
Write down the outcome that applies. Available outcomes: 1.0 = active, 0.0 = inactive

Would you please look over these solved cases?
compound | system | assigned.label
COc1ccc2c(c1)C=CC1(O2)Oc2ccc(OC)cc2C=C1C (centres undefined) | NCI/ADR-RES ovarian | 1.0
C#C[C@]1(O)CC[C@H]2[C@@H]3CC=C4c5sc(N(C)c6ccccc6)nc5CC[C@]4(C)[C@H]3CC[C@@]21C | NCI/ADR-RES ovarian | 0.0
Cn1cc(C2=C(c3coc4cc(Br)ccc34)C(=O)NC2=O)c2ccccc21 | NCI/ADR-RES ovarian | 0.0
O=C(CCCCCCN1CC(=O)N2[C@@H](c3ccc(Cl)s3)c3[nH]c4ccccc4c3C[C@H]2C1=O)NO | NCI/ADR-RES ovarian | 0.0
CC(Nc1c(C#N)cnc2ccc(-c3cncc(O)c3)cc12)c1ccccc1 (centres undefined) | NCI/ADR-RES ovarian | 0.0

State the result this test recorded for `Cc1ccc2c(n1)C(=O)C(Cl)=C(Nc1ccc(C(=O)OC(C)(C)C)cc1)C2=O` .
0.0

State the result this test recorded for `O=C(CSc1cc[n+](CCCCO)c2ccccc12)n1ccc2ccccc21` .
0.0

State the result this test recorded for `N#C/C(=N\Nc1ccc(F)cc1)C(=O)Nc1cc(-c2ccccc2)nn1-c1ccccc1` .
1.0

State the result this test recorded for `C/C(=N\NC(=O)/C=C/CC(=O)O)c1nnn(-c2ccc([N+](=O)[O-])cc2)c1C` .
0.0
